test system: IGROV1 ovarian; test: NCI tumour cell line growth inhibition, 48 h
Property Measured: TGI

Observe how each entry below is paired with its result.
1. CN1CCN(c2ccc(Nc3ncc4cc5n(c4n3)C3(CCCCC3)CNC5=O)nc2)CC1
16.4 µM
2. NC(=O)c1cc([N+](=O)[O-])cc([N+](=O)[O-])c1
> 100 µM
3. CC1OC(OCC2OC(Oc3ccc(C4CC(=O)c5c(O)cc(O)cc5O4)cc3O)C(O)C(O)C2O)C(O)C(O)C1O (stereo not drawn)
> 100 µM
4. O=C1CSC(c2ccccc2O)N1c1nc2cc3sc(N4C(=O)CSC4c4ccccc4O)nc3cc2s1 (stereo not drawn)
> 100 µM

Consider now this further compound.
// sample CCSc1nnc(-c2ccccc2)nc1Cc1ccc(OC)cc1 , its TGI was > 100 µM

---

tested on: HL-60(TB) leukemia; experiment: NCI tumour cell line growth inhibition, 48 h
# TGI values compiled below

1. CC(C)NC(=O)OCc1c(COC(=O)NC(C)C)c(-c2cc[n+](COC(=O)C(C)C)cc2)n2c1CCC2
> 77.7 µM

Consider the record given below.
Memo: CNC(C)Cc1ccccc1OC (stereo not drawn) , reported TGI: > 100 µM

---

TGI: recorded values
system: U251 CNS; experiment: NCI tumour cell line growth inhibition, 48 h
Express the result in µM but write the number alone.

Solved entries (count: 3):
1. COC(=O)[C@]12CC[C@@H](C)[C@H](C)[C@@H]1C1=CC[C@@H]3[C@@]4(C)CC(=O)[C@H](O)[C@@](C)(CO)[C@@H]4C(=O)C[C@@]3(C)[C@]1(C)CC2
25.1
2. COc1ccc2nc3cc(Cl)ccc3c(Nc3cc(C(C)C)c(O)cc3C)c2c1
3.53
3. COC1=CC2CCN3Cc4cc5c(cc4C(C1O)C23)OCC5 (centres undefined)
11.4

Consider now this further compound.
Reported TGI (U251 CNS) for entry COc1cc(Cn2c(SCC(=O)Nc3ccc(Cl)cc3)nc3ccccc3c2=O)cc(OC)c1OC is 11.1

---

system: ACHN renal; experiment: NCI tumour cell line growth inhibition, 48 h
Examples of compounds with documented TGI follow.
Response body: numeric value in µM, unit text excluded.

1) CC1(C=O)CCC23COC4(CCC5C6(C)CCC(OC7OCC(OC8OC(CO)C(O)C(OC9OC(CO)C(O)C(O)C9O)C8OC8OCC(O)C(O)C8O)C(O)C7OC7OC(CO)C(O)C(O)C7O)C(C)(C)C6CCC5(C)C4(C)CC2O)C3C1 (stereo not drawn)
2.57
2) O=c1c2cc(S(=O)(=O)O)ccc2nc(COc2ccc(Oc3ccc(Cl)cc3Cl)cc2)n1C(=S)Nc1ccc(Cl)cc1
64.7
3) N#Cc1cn(-c2c3ccccc3nc3ccccc23)c(=O)[nH]c1=O
34.8

Here's the next entry for you.
Query Cc1c(O)c(Br)c(C)c(O)c1Br (tested in a mixture with another compound) yields TGI of 3.05

---

system: NCI-H522 lung; assay: NCI tumour cell line growth inhibition, 48 h; in the data active = GI50 below about 0.43 µM; inactive = the rest
Please answer using one outcome listed in active, inactive

Hi, do you know how COc1cc(-c2nn(-c3cccc(NC(=O)CCN4CCN(C)CC4)c3)cc2-c2ccncc2)ccc1Cl came out in this test?
active

Which outcome was entered for the compound OCc1ccc(N(Cc2ccc(F)cc2)CC2CCC2)cc1Cl in this test?
inactive

Per the assay record, what outcome was assigned to CN1CCN(c2ccc(Nc3ncc4cc5n(c4n3)C3(CCCCC3)CNC5=O)nc2)CC1 ?
inactive

Any idea what this test logged for Oc1cccc(-c2nc(-c3ccccc3)[nH]c2-c2ccncc2)c1 ?
inactive

So what was the verdict on CNCCNc1nc2ccccc2c2c(=O)c3cccc(C)c3sc12 in this test?
inactive

Short answer needed: outcome of this test for O=C1N=C(Nc2nc(-c3csc(NC4=NC(=O)/C(=C\c5ccc(Cl)cc5)S4)n3)cs2)S/C1=C/c1ccc(Cl)cc1 ?
inactive

Tell me the recorded outcome of this test for Fc1ccc(-c2nn3c(COc4ccc(Cl)cc4Cl)nnc3s2)cc1Oc1ccccc1 .
inactive

Would you mind telling me which call this test gave CCc1ccc2c(c1)C(=O)c1c-2n(CCCN)c(=O)c2cc([N+](=O)[O-])ccc12 ?
inactive

---

# TGI annotations
tested on: ACHN renal; test: NCI tumour cell line growth inhibition, 48 h
Answer with a number only, understood to be in µM.

Consider the reported TGI for these compounds:
1) CCCCCCC1CC(=O)C1(Cl)Cl (stereo not given)
35.8
2) CS(=O)(=O)OCCN(CCOS(C)(=O)=O)c1ccc(/C=N/Nc2ncnc3nc[nH]c23)cc1
97.2
3) CCOC(=O)C1=C(c2ccccc2)N(C(C)=O)Cc2ccccc21
66.7

Pending compound:
For N#CC1=C(N)OC(c2cccc([N+](=O)[O-])c2)C1(C#N)C#N (stereo not given) the compound record lists TGI as 33.2

---

TGI listing for selected compounds.
system: IGROV1 ovarian; assay: NCI tumour cell line growth inhibition, 48 h
Numbers only here, please. The scale is µM.

Here CS(=O)(=O)OCCN(CCOS(C)(=O)=O)c1ccc(/C=N/Nc2ncnc3nc[nH]c23)cc1 was tested on IGROV1 ovarian, and its TGI came to 71.6

The value of TGI recorded for O=C1C(Br)=CC2(C=C1Br)CCNc1c(O)c3c4c(c12)=NCCC=4C=N3 when tested on IGROV1 ovarian reads 0.42

---

system: SK-MEL-5 melanoma; assay: NCI tumour cell line growth inhibition, 48 h
Property Measured: GI50

1. Cc1cc2c(cc1Cl)N1C(=O)NS(=O)(=O)N=C1NS2(=O)=O
> 100000 nM
2. CCc1ccc2c(c1)C(=O)c1c-2n(CCCN)c(=O)c2cc([N+](=O)[O-])ccc12
1600 nM
3. CCN1C(=O)N(CC)C2C1NN=c1s/c(=C\c3ccc(OC)cc3)c(=O)n12 (centres undefined)
192 nM

get_value(item= CC1COCCN1CC#CCOC(=O)c1cc2ccccc2oc1=O (centres undefined) , readout=GI50) returns > 100000 nM

Value of GI50 reported for the compound COc1ccc(-c2nc3sccn3c2-c2ccnc(NCCCNS(=O)(=O)c3ccc(F)cc3)n2)cc1 is 1060 nM

Lab note: Cc1cn2c(/C=C3/C(=O)Nc4ccc(Cl)cc43)c(C)nc2s1 gave GI50 of 125 nM

Kindly note the recorded GI50 for Fc1ccc(-c2nn3c(COc4ccc(Cl)cc4Cl)nnc3s2)cc1Oc1ccccc1 , which is 23000 nM

Notebook: N=C1/C(=C2\Nc3ccccc3S2)CC(=O)N1c1ccc(SC(F)F)cc1 , GI50 read as 5850 nM

# GI50 (compound: N[C@@H](CSSC[C@H](N)C(=O)N1CCn2cc(-c3ccccc3)nc2[C@@H]1CC1CCCCC1)C(=O)N1CCn2cc(-c3ccccc3)nc2[C@@H]1CC1CCCCC1 ) is 361 nM

---

tested on: MALME-3M melanoma; assay: NCI tumour cell line growth inhibition, 48 h; in the data active means GI50 below about 0.43 µM; inactive means the rest
The reply should name one outcome from yes for active, no for inactive

Some solved cases for reference:
1) CCCc1n(Cc2ccc3ccccc3n2)cc[n+]1Cc1ccc2ccccc2n1
no
2) Fc1ccc(-c2c(-c3ccncc3)[nH]c3nccnc23)cc1
no
3) CCOC(=O)c1cc(-c2ccccc2)[nH]c1N/N=C/c1c(Cl)cccc1Cl
no

Recorded test call requested for Fc1ccc(C2C3CCOc4c(ccc5ccccc45)C3=NN2c2ccccc2)cc1 (stereo not given)
no

For this molecule, state the assay outcome: CCN1C(=O)N(CC)C2C1NN=c1s/c(=C\c3ccc(OC)cc3)c(=O)n12 (stereo not given)
yes

Give the logged outcome of this assay for the following molecule: COc1ccc(/C=C2/CN(CCC#N)C/C(=C\c3ccc(OC)cc3)C2=O)cc1
no

Name the outcome recorded for CC[C@@]1(O)C(=O)NCc2c1cc1n(c2=O)Cc2cc3c(NC(C)=O)cccc3nc2-1 in the assay.
no

Please share the test call associated with O=C1NC(=N[C@H](CO)c2ccccc2)S/C1=C\c1ccc2ncccc2c1 .
no

Which result was noted for this molecule in the test: C[C@H](c1ccccc1)N(CCC(=O)O)C(=O)CCN(C(=O)CCN(C(=O)CCN[C@H](C)c1ccccc1)[C@H](C)c1ccccc1)[C@H](C)c1ccccc1
no

Which outcome did this test record for the molecule COc1ccc(-c2nc3sccn3c2-c2ccnc(NCCCNS(=O)(=O)c3ccc(F)cc3)n2)cc1 ?
no

---

tested on: HCC-2998 colon; test: NCI tumour cell line growth inhibition, 48 h
Where a SMILES comes first, the peptide text is derived from it. [ ]: non-standard residue; d: D form. The star is where a group is joined. Phe(4-NO2) = N[CH](Cc1ccc([N+](=O)[O-])cc1)C(=O)O; Hiv = CC(C)[C@H](O)C(=O)O; Boc = CC(C)(C)OC(=O)*
Property Measured: TGI

Previously resolved entries follow.
1) CCOC(=O)Nc1cc2c(c(N)n1)N=C(c1ccc3ccccc3c1)CN2
1.47 µM
2) c1c2c(cc3c1OCO3)-c1cc3ccc4c(c3c[n+]1CC2)OCO4
> 12.5 µM
3) CCCCCCCCCCCC(=O)OC(COC(N)=O)COc1ccc(Cl)cc1 (stereo not drawn)
96.1 µM
4) COC(=O)CCC(NC(=O)OC(C)(C)C)C(=O)NC(Cc1ccc([N+](=O)[O-])cc1)C(=O)NC(CCC(=O)OC)C(=O)OC (stereo not drawn) (Boc-Glu(OMe)-[Phe(4-NO2)]-Glu(OMe)-OMe; configuration not given here)
> 100 µM
5) C=C(CO)[C@H]1Oc2ccc(C(C)=O)cc2[C@@H]1O
> 100 µM
6) Cc1cc2c(cc1Cl)N1C(=O)NS(=O)(=O)N=C1NS2(=O)=O
> 100 µM
7) NCCNCCNc1ccc(NCCNCCN)c2c1C(=O)c1c(O)ccc(O)c1C2=O
> 100 µM
8) COc1cc2c(cc1OC)C(=O)/C(=C/c1cc(Cl)cc(Cl)c1)C2
> 100 µM
9) CC1(C)CC(N2CCN(C3CC(C)(C)NC(C)(C)C3)CC2)CC(C)(C)N1
> 100 µM
10) CC(C)[C@@H]1OC(=O)[C@@H](C)NC(=O)[C@@H]2CCCN2C1=O (cyclo([Hiv]-Pro-[dA]))
> 100 µM

The compound Nc1ccc(C(=O)Nc2ccccc2N)cc1 , when measured on HCC-2998 colon, yielded TGI of > 100 µM

Entry CC1(C=O)CCC23COC4(CCC5C6(C)CCC(OC7OCC(OC8OC(CO)C(O)C(OC9OC(CO)C(O)C(O)C9O)C8OC8OCC(O)C(O)C8O)C(O)C7OC7OC(CO)C(O)C(O)C7O)C(C)(C)C6CCC5(C)C4(C)CC2O)C3C1 (stereo not drawn) ; assay system HCC-2998 colon; TGI recorded at 2.17 µM
